Assay: Measurement of solubility in cosmetic solvents Cétiol LC and Crodamol DA
Type: physicochemical
Conditions: oversaturated solution, overnight at 25° C., filtered, UV measurement in CH2Cl2
Below, each entry is listed with its recorded solubility in Cétiol LC (cocoyl caprylate caprate).
Could you give me the number in %? Just the number is fine.

INPUT: Item CCCCC(CC)COc1ccc(NC=C2C(=O)N(C(C)C)C(=O)N(C(C)C)C2=O)cc1 (stereo not shown) has what recorded solubility in Cétiol LC (cocoyl caprylate caprate)?
OUTPUT: 15.5

More entries:
INPUT: Item CCCCCCCC(=O)Oc1ccc(NC=C2C(=O)N(C(C)C)C(=O)N(C(C)C)C2=O)cc1 has what recorded solubility in Cétiol LC (cocoyl caprylate caprate)?
OUTPUT: 6.6

###

Assay: UV absorption (UV-A filter property)
Type: physicochemical
Conditions: value in brackets after the UV maximum
Excerpt: The compounds of formula I have adsorption maxima in the range of 320 nm to 400 nm, the so called UV-A radiation.
Assay Endpoint: UV extinction (ε) at absorption maximum

Record excerpt, results attached:
INPUT: Item CC(C)N1C(=O)C(=CNc2ccc(O)cc2)C(=O)N(C(C)C)C1=O has what recorded UV extinction (ε) at absorption maximum?
OUTPUT: 27,911

INPUT: Same question for CCCCCCCC(=O)Oc1ccc(NC=C2C(=O)N(C(C)C)C(=O)N(C(C)C)C2=O)cc1 please.
OUTPUT: 33,768

INPUT: Same question for CC(C)N1C(=O)C(=CNc2ccc(O)cc2O)C(=O)N(C(C)C)C1=O please.
OUTPUT: 23,564

More entries:
INPUT: Item C#CCOc1ccc(NC=C2C(=O)N(C(C)C)C(=O)N(C(C)C)C2=O)cc1 has what recorded UV extinction (ε) at absorption maximum?
OUTPUT: 31,596

INPUT: Same question for CCCCC(CC)COc1ccc(NC=C2C(=O)N(C(C)C)C(=O)N(C(C)C)C2=O)cc1 (centres unmarked) please.
OUTPUT: 32,122

INPUT: Same question for CCCCCCCC(=O)Oc1ccc(NC=C2C(=O)N(C(C)C)C(=O)N(C(C)C)C2=O)c(OC(=O)CCCCCCC)c1 please.
OUTPUT: 31,349

INPUT: Same question for C=C(COc1ccc(NC=C2C(=O)N(C(C)C)C(=O)N(C(C)C)C2=O)cc1)[Si](C)(O[Si](C)(C)C)O[Si](C)(C)C please.
OUTPUT: 31,520

INPUT: Same question for CCCCCCCC(=O)Oc1ccc(NC=C2C(=O)N(C(C)C)C(=O)N(C(C)C)C2=O)c(O)c1 please.
OUTPUT: 25,813

###

Experiment: UV absorption (UV-A filter property)
Assay type: physicochemical
Assay Endpoint: UV absorption maximum (nm)
Could you give me the number in nm? Just the number is fine.

Record excerpt, results attached:
INPUT: Item CCCCCCCC(=O)Oc1ccc(NC=C2C(=O)N(C(C)C)C(=O)N(C(C)C)C2=O)c(O)c1 has what recorded UV absorption maximum?
OUTPUT: 354

INPUT: Same question for CCCCC(CC)COc1ccc(NC=C2C(=O)N(C(C)C)C(=O)N(C(C)C)C2=O)cc1 (centres unmarked) please.
OUTPUT: 355

More entries:
INPUT: Item CC(C)N1C(=O)C(=CNc2ccc(O)cc2O)C(=O)N(C(C)C)C1=O has what recorded UV absorption maximum?
OUTPUT: 363

INPUT: Same question for CCCCCCCC(=O)Oc1ccc(NC=C2C(=O)N(C(C)C)C(=O)N(C(C)C)C2=O)c(OC(=O)CCCCCCC)c1 please.
OUTPUT: 351

INPUT: Same question for CC(C)N1C(=O)C(=CNc2ccc(O)cc2)C(=O)N(C(C)C)C1=O please.
OUTPUT: 351

INPUT: Same question for CCCCCCCC(=O)Oc1ccc(NC=C2C(=O)N(C(C)C)C(=O)N(C(C)C)C2=O)cc1 please.
OUTPUT: 346

INPUT: Same question for C#CCOc1ccc(NC=C2C(=O)N(C(C)C)C(=O)N(C(C)C)C2=O)cc1 please.
OUTPUT: 352

INPUT: Same question for C=C(COc1ccc(NC=C2C(=O)N(C(C)C)C(=O)N(C(C)C)C2=O)cc1)[Si](C)(O[Si](C)(C)C)O[Si](C)(C)C please.
OUTPUT: 354

###

Assay: Measurement of solubility in cosmetic solvents Cétiol LC and Crodamol DA
Type: physicochemical
Details: oversaturated solution, overnight at 25° C., filtered, UV measurement in CH2Cl2
Assay Endpoint: solubility in Crodamol DA (diisopropyl adipate) (%)
Could you give me the number in %? Just the number is fine.

INPUT: Item CC(C)N1C(=O)C(=CNc2ccc(O)cc2)C(=O)N(C(C)C)C1=O [Example 6] has what recorded solubility in Crodamol DA (diisopropyl adipate)?
OUTPUT: 3.6

INPUT: Same question for CCCCC(CC)COc1ccc(NC=C2C(=O)N(C(C)C)C(=O)N(C(C)C)C2=O)cc1 (centres unmarked) [Example 1] please.
OUTPUT: 26.9

INPUT: Same question for CC(C)N1C(=O)C(=CNc2ccc(O)cc2O)C(=O)N(C(C)C)C1=O [Example 7] please.
OUTPUT: 4.1

Next compound, solubility in Crodamol DA (diisopropyl adipate) to be filled in.
INPUT: Item CCCCCCCC(=O)Oc1ccc(NC=C2C(=O)N(C(C)C)C(=O)N(C(C)C)C2=O)cc1 [Example 8] has what recorded solubility in Crodamol DA (diisopropyl adipate)?
OUTPUT: 18.5

Cited source: patent US6573269B1
